System: DM2 patient-derived fibroblasts
ASSAY PROCEDURE: Cell viability by CellTiter-Glo
Type: cell-based
RUN CONDITIONS: at 5 μM
READOUT: toxicity in DM2 patient-derived fibroblasts

INPUT SMILES: Cc1ccc2nc(Nc3ccc4nc(NCC(C)C)sc4c3)nc(NCCCO)c2c1
TEST SYSTEM: DM2 patient-derived fibroblasts
RESULT: significant toxicity

INPUT SMILES: Cc1ccc2nc(Nc3ccc4nc(N5CCOCC5)sc4c3)nc(NCCCO)c2c1
TEST SYSTEM: DM2 patient-derived fibroblasts
RESULT: significant toxicity

INPUT SMILES: Cc1ccc2nc(Nc3ccc4nc(NCCN(C)C)sc4c3)nc(NCCCO)c2c1
TEST SYSTEM: DM2 patient-derived fibroblasts
RESULT: no toxicity

INPUT SMILES: Cc1ccc2nc(Nc3ccc4nc(NCC(C)(C)O)sc4c3)nc(NCCCO)c2c1
TEST SYSTEM: DM2 patient-derived fibroblasts
RESULT: no toxicity
